- Tested on: IGROV1 ovarian
- MEASUREMENT_NOTES: NCI-60 one-dose screen, 48 h (100 = growth as untreated, 0 = no growth, -100 = all killed)
- COND: 10 µM unless noted
Compounds without any hit were thinned out: in the full panel of roughly 83,000, 20% have a hit. Calls of active or inactive are those of the source. The calls were made as follows: active = growth percent below 10; inactive = the rest.
QUANTITY_KIND: growth

// below: answered molecules
[[record]]
structure_smiles = "C#CCn1c(C)cc(C)c(C#N)c1=O"
quantity_kind = "growth"
value = "103% (inactive)"

[[record]]
structure_smiles = "O=C(NC1=CC(=O)c2ccccc2C1=O)c1ccccc1"
quantity_kind = "growth"
value = "-30.1% (active)"

[[record]]
structure_smiles = "N#C/C(=C\\c1ccc(-c2ccc(Br)cc2)o1)c1nc(-c2cccs2)cs1"
quantity_kind = "growth"
value = "88.1% (inactive)"


Q: Look up growth for this molecule: "Clc1ccccc1-c1nc(Nc2nc3ccccc3s2)nc(C(Cl)(Cl)Cl)n1"
A: 54.3% (inactive)

Q: Entry "CCCCC[C@H]1CC=C2C(=O)C(Cl)=C[C@@H]2CC=CCCCC(=O)O[C@@H](CCCCC)CC=C2C(=O)C(Cl)=C[C@@H]2CC=CCCCC(=O)O[C@@H](CCCCC)CC=C2C(=O)C(Cl)=C[C@@H]2CC=CCCCC(=O)O1" please
A: 36% [8 µM] (inactive)

Q: How about this molecule: "O=C1c2cc3c(cc2-c2c1c1ccc(Cl)cc1c(=O)n2C[C@H](O)[C@@H](O)[C@H](O)CO)OCO3"
A: 9.99% (active)

Q: Also need "Clc1ccc(Cn2cc(-c3nc4ccc(Br)nc4n3Cc3ccc(Cl)cc3)c3cccnc32)cc1" , thanks.
A: 77.3% (inactive)

Q: Same question, "CCCNc1nc(N(C)O)nc(N(C)O)n1" this time
A: 36.9% (inactive)

Q: Continue with "c1cc(N2CCCC2)c2nc(-c3[nH]ncc3Nc3ncnc4[nH]ccc34)[nH]c2c1"
A: -17.9% (active)
